system-name: T1, human FLT3 (human, UniProt P36888 27-993)
T1 construct: On transfected CHO cells, or on the FLT3 positive human AML cell lines EOL-1 / MV4-11 where the row says so; also called hu FLT3; full length human FLT3
method-description: FACS, scFv on CHO-human FLT3 pre-incubated with FLT3 ligand (competitor)
Please respond with reported median [+ligand]/median [w/o ligand]*100 for every item in the list.

Illustrative cases are given below, each with its answer.
>>> result("FL-32 scFv (scFv, periplasmic prep) scFv: QVTLKESGPTLVKPTETLTLTCTVSGFSFRNARMGVSWIRQPPGKALEWLAHIFSNDEKSYSTSLKSRLTISKDTSKGQVVLTMTNMDPVDTATYYCARIVGYGSGWYGYFDYWGQGTLVTVSSGGGGSGGGGSGGGGSDIQMTQSPSSLSASVGDRVTITCRASQGIRNDLVWYQQKPGKAPKRLIYAASTLQSGVPSRFSGSGSGTEFILTISSLQPEDFATYFCLQHYSYPLTFGGGTKLEIK")
"≥ 75%"
>>> result("FL-54 scFv (scFv, periplasmic prep) scFv: QVQLVESGGGVVQPGRSLRLSCAASGFTFSSYGMHWVRQAPGKCLEWVAVISYDGSNEFYADSVKGRFTISRDNSKNTLYLQMNSLRAEDTAVYYCARGGEITMVRGVIGYYYYGMDVWGQGTTVTVSSGGGGSGGGGSGGGGSEIVMTQSPATLSVSPGERATLSCRASQGVRNNLVWYQQKPGQAPRLLIYGASTRATGIPARFSGSGSGTEFTLTISSLQSEDFATYYCLQHNSYPLTFGCGTKVEIK")
"≥ 75%"

Enquiry: Data request, read-out median [+ligand]/median [w/o ligand]*100, for FL-48 scFv (scFv, periplasmic prep) scFv: QVTLKESGPMLVKPTETLTLTCTFSGFSLRNARMGVSWIRQPPGKCLEWLAHIFWNDEKSYSTSLKSRLTISKDTSKSQVVLTMTNMDPVDTATYYCARIPYYGSGSYNYGMDVWGQGTTVTVSSGGGGSGGGGSGGGGSDIQMTQSPSSLSASVGDRVTITCRASQGIRNDLGWYQQKPGKAPKRLIYAASSLQSGVPSRFSGSGSGTEFTLTISSLQPEDFATYYCLQHNTYPLTFGCGTKVDIK
Return: ≥ 75%
